Entry source: patent US20230049752A1

# test.system: human Claudin-6 (CLDN6) (human) (UniProt P56747)
# assay.explanation: FACS, 1.5 ug Ab, ARK2 cells (2nd Ab only 1351.21)
measure.name: FACS fluorescence
# answer = number (no unit)

What does the record list as FACS fluorescence for AB1-8 (antibody, V domains shown, humanized) VH: QVQLVQSGAEVKKPGASVKMSCKASGYTFTTYTMHWVRQAPGQGLEWIGFINPSSGYTDYAQKFQGRVTLTADTSTSTVYMELSSLRSEDTAVYYCANGDYYVAYWGQGTLVTVSS VL: DIQLTQSPSSLSASVGDRVTMTCTASSSVSSTYFHWYQQKPGKAPKLWIYSTSNLASGVPSRFSGSGSGTDYTLTISSMQPEDAATYYCHQYHRSPLTFGQGTKLEIK ? 17600

What does the record list as FACS fluorescence for AB18-chim (antibody, V domains shown) VH: QVQLKQSGPELEKPGASVKISCKASGYSFTGYNMNWVKQSNGKSLEWIGNIDPYYGGSTYNQKFTGKATLTVDKSSSTAYMQLKSLTSEDSAVYYCARERSGYVFSAMDYWGQGTSVTVSS VL: NIMMTQSPSSLAVSAGEKVTMSCKSSQSVLFSSNQKNYLAWYQQKPGQSPRLLIYWASTRESGVPDRFTGSGSGTDFTLTISNVQAEDLAVYYCHQYLSSRTFGAGTKLELK ? 9150

What does the record list as FACS fluorescence for AB4-4 (antibody, V domains shown, humanized) VH: QVQLVQSGAEVKKPGASVKMSCKASGYTFTSYTMHWIRQAPGQGLEWIGYINPSSTYTHYAQKFQGRATLTADTSTSTAYMELSSLRSEDTAVYYCSRGELGGFAYWGQGTLVTVSS VL: DVVMTQSPLSLPVTLGQPASISCRSSQSLVHSDGNTYLNWYQQRPGQSPRLLIYKVSNRFSGVPDRFSGSGSGTDFTLKISRVEAEDVGVYYCSQSTHVPYTFGQGTKLEIK ? 1400

What does the record list as FACS fluorescence for AB1-11 (antibody, V domains shown, humanized; also called humanized AB1-11; HU-11) VH: QVQLVQSGAEVKKPGASVKMSCKASGYTFTTYTMHWVRQAPGQGLEWIGFINPSSGYTDYAQKFQGRVTLTADKSTSTVYMELSSLRSEDTAVYYCANGDYYVAYWGQGTLVTVSS VL: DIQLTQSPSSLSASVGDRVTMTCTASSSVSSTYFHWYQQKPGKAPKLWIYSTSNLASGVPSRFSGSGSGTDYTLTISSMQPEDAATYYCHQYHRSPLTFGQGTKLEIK ? 97700

What does the record list as FACS fluorescence for AB3-chim (antibody, V domains shown) VH: EVKLEESGGGLVQPGGSMKLSCVASGFTFSNYWMNWVRQSPEKGLEWVAQIRLKSDNYATHYAESVKGRFTISRDDSKRSVYLQMNNLRAEDTGTYYCNDGPPSGCWGQGTTLIVSS VL: DIQMTQSPASLSASVGETVTITCRISENIYSYLAWYQQKQGKSPQLLVYNAKILVEGVPSRFSGSGSGTQFSLKINSLQPEDFGNYYCQHHYTVPWTFGGGTKLEIK ? 29100

What does the record list as FACS fluorescence for AB11-chim (antibody, V domains shown) VH: DVQLVESGGGLVQPRGSRKLSCAASGFTFSSFGMHWVRQAPEKGLEWVAYISSDSRTIYYADTVKGRFTISRDNPTNTLFLQMTSLRSEDTAMYYCARDYGRTYEAYWGQGTLVTVSA VL: DIVLTQSPASLAVSLGQRATISCRASKSVSTSGYSYIHWYQQKPGQPPKLLIYLASNLESGVPARFSGSGSGTDFTLNIHPVEEEDAATYYCQHSRELPLTFGAGTKLELK ? 1260

What does the record list as FACS fluorescence for AB1-3 (antibody, V domains shown, humanized) VH: QVQLVQSGAEVKKPGASVKVSCKASGYTFTTYTMHWVRQAPGQGLEWMGFINPSSGYTDYAQKFQGRVTMTADTSTSTVYMELSSLRSEDTAVYYCANGDYYVAYWGQGTLVTVSS VL: DIQMTQSPSSLSASVGDRVTITCTASSSVSSTYFHWYQQKPGKAPKLLIYSTSNLASGVPSRFSGSGSGTDYTLTISSLQPEDFATYYCHQYHRSPLTFGQGTKLEIK ? 10800

What does the record list as FACS fluorescence for AB1-4 (antibody, V domains shown, humanized) VH: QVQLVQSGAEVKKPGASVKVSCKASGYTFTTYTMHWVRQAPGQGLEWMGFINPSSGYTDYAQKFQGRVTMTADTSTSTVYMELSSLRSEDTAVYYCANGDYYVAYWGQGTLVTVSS VL: DIQLTQSPSSLSASVGDRVTMTCTASSSVSSTYFHWYQQKPGKAPKLLIYSTSNLASGVPSRFSGSGSGTDYTLTISSMQPEDAATYYCHQYHRSPLTFGQGTKLEIK ? 10000

What does the record list as FACS fluorescence for AB4-8 (antibody, V domains shown, humanized) VH: QVQLVQSGAEVKKPGASVKVSCKASGYTFTSYTMHWVRQAPGQGLEWMGYINPSSTYTHYIKKFKDRVTMTADTSTSTVYMELSSLRSEDTAVYYCSRGELGGFAYWGQGTLVTVSS VL: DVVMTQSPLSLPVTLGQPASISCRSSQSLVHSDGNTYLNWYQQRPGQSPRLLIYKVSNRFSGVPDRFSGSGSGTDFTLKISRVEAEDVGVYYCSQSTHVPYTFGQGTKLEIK ? 7310

What does the record list as FACS fluorescence for AB3-4 (antibody, V domains shown, humanized) VH: EVQLLESGGGLVQPGGSMRLSCAASGFTFSNYWMNWVRQAPGKGLEWVAQIRLKSDNYATHYADSVKGRFTISRDDSKNTVYLQMNSLRAEDTGVYYCNDGPPSGYWGQGTLLTVSS VL: DIQMTQSPSSLSASVGDRVTITCRISENIYSYLAWYQQKPGKAPKLLIYNAKILVEGVPSRFSGSGSGTDFTLTISSLQPEDFATYYCQHHYTVPWTFGQGTKLEIK ? 1460

What does the record list as FACS fluorescence for AB3-2 (antibody, V domains shown, humanized) VH: EVQLLESGGGLVQPGGSMRLSCAASGFTFSNYWMNWVRQAPGKGLEWVAQIRLKSDNYATHYADSVKGRFTISRDDSKNTVYLQMNSLRAEDTGVYYCNDGPPSGCWGQGTLLTVSS VL: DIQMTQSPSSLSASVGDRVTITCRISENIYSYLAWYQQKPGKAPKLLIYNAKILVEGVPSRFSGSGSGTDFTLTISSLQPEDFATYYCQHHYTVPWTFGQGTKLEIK ? 33600
